Measured MIC90, listed per entry.
Test system: Streptococcus pneumoniae
Assay: Antibacterial activity against Streptococcus pneumoniae by microdilution method
Format: functional

Below, each entry is followed by its recorded MIC90 result.
[
  {
    "compound": "COc1cc(Cc2cnc(N)nc2N)cc(OC)c1OC",
    "result": "> 32 µg/mL"
  },
  {
    "compound": "CC[C@H]1OC(=O)[C@H](C)C(=O)[C@H](C)[C@@H](O[C@@H]2O[C@H](C)C[C@H](N(C)C)[C@H]2O)[C@](C)(OC)C[C@@H](C)C(=O)[C@H](C)[C@H]2N(CCCCn3cnc(-c4cccnc4)c3)C(=O)O[C@]12C",
    "result": "0.5 µg/mL"
  },
  {
    "compound": "CC1(C)S[C@@H]2[C@H](NC(=O)Cc3ccccc3)C(=O)N2[C@H]1C(=O)O",
    "result": "2 µg/mL"
  },
  {
    "compound": "CC[C@H]1OC(=O)[C@H](C)[C@@H](O[C@H]2C[C@@](C)(OC)[C@@H](O)[C@H](C)O2)[C@H](C)[C@@H](O[C@@H]2O[C@H](C)C[C@H](N(C)C)[C@H]2O)[C@](C)(O)C[C@@H](C)CN(C)[C@H](C)[C@@H](O)[C@]1(C)O",
    "result": "> 8 µg/mL"
  },
  {
    "compound": "COc1c(N2CCNC(C)C2)c(F)cc2c(=O)c(C(=O)O)cn(C3CC3)c12 (configuration not stated)",
    "result": "0.25 µg/mL"
  },
  {
    "compound": "CC1(C)S[C@@H]2[C@H](NC(=O)[C@H](N)c3ccc(O)cc3)C(=O)N2[C@H]1C(=O)O",
    "result": "4 µg/mL"
  }
]

Look up MIC90 of COc1cc(Cc2cnc(N)nc2N)c2cc(Cc3c(C(=O)N(C)C)[nH]c4ccc(Cl)cc34)oc2c1OC and report it.
0.25 µg/mL
